# tested-target: Cytochrome P450 2C9 (Homo sapiens)
# assay-remarks: Cytochrome P450 family 2 subfamily C member 9 (CYP2C9) small molecule antagonists: luciferase biochemical (cell-free) qHTS assay (AID 1645842); further: nearly all actives have a fitted effect of over 55% in size; further: potency means the concentration at half of the fitted maximal effect
# condition-context: P450-Glo CYP2C9 enzyme assay, luciferin luminescence; series mostly up to 57.4 µM
Results filed as inconclusive are left out. Activity calls are given as the source filed them. The call rests on the fitted dose curve; in most records, active means well fitted inhibition curve with a large enough effect in the repeat runs; inconclusive means weak or mixed curves; inactive means no such curve, though single readings can be large or run the other way.
measurement-name: Potency

These solved cases illustrate the format of a correct answer.
Sample `Cc1cc(=O)oc2cc(O[C@@H]3SC[C@@H](O)[C@H](O)[C@H]3O)ccc12` ; Potency observed: inactive

Sample CC(CCc1ccc2c(c1)OCO2)NN (stereo unspecified) ; Potency observed: 15500 nM (active)

Sample CC(=O)O[C@@H]1CC2C3CCc4cc(OC(=O)c5ccccc5)ccc4C3CCC2(C)[C@H]1OC(C)=O (stereo partly specified) ; Potency observed: inactive

Sample `COC(=O)c1cc(Cl)ccc1OC` ; Potency observed: inactive

Sample `CCCCCC[C@@H](CCC)C(=O)O` ; Potency observed: inactive

Sample CCCCC/C=C\C/C=C\CCCCCCCC(=O)NC(C)c1ccccc1 (stereo unspecified) ; Potency observed: 1550 nM (active)

Sample `CCOC(=O)CN1CCCC1=O` ; Potency observed: inactive

Sample `CN1CC[C@H](c2c(O)cc(O)c3c(=O)cc(-c4ccccc4Cl)oc23)[C@H](O)C1` ; Potency observed: inactive

Next:
Sample `O=C(OCC1(COC(=O)c2cccnc2)CCCC(COC(=O)c2cccnc2)(COC(=O)c2cccnc2)C1O)c1cccnc1` ; Potency observed: 2450 nM (active)

Sample `C[N+](C)(CCOc1ccccc1)Cc1cccs1` ; Potency observed: inactive

Sample `CCN(CC)CC(=O)Oc1ccc(NC(C)=O)cc1` ; Potency observed: inactive

Source listed as PubChem BioAssay (NCATS).
